SYSTEM_TESTED: haematopoietic prostaglandin D synthase (H-PGDS) (Homo sapiens)
Construct: Full length human H-PGDS cDNA (Invitrogen Ultimate ORF 10H13026) was amplified by PCR; 6-His (N); TEV protease cleavage site (N); made in house; host or cells: E. coli BL21 (DE3*), vector pET22b+
EXPERIMENT_SUMMARY: H-PGDS RapidFire high throughput mass spectrometry assay (conversion of PGH2 to PGD2)
Format: biochemical
CONDITION_PARAMETERS: 10 nM H-PGDS, PGH2 formed in situ by COX-2 from arachidonic acid; read-out: Potency Range (mean pIC50) (converted)
MEASURED_ATTRIBUTE: IC50

• CC(C)(O)[C@@H]1CC[C@@H](NC(=O)N2CC(Oc3cc(F)cc4scnc34)C2)CO1 (racemic) = 0.01 to 0.0794 µM
• CC(C)(O)C12C3C4C1C1C2C3C41NC(=O)[C@H]1C[C@H](Oc2cccc3scnc23)C1 (some centres unmarked) = 0.01 to 0.0794 µM
• O=C(NC1CCc2ccccc21)[C@H]1C[C@H](Oc2cccc3cccnc23)C1 (mixture of isomers) = 0.01 to 0.0794 µM
• CC(C)(O)[C@H]1CC[C@H](NC(=O)[C@H]2C[C@H](Oc3cccc4cc(F)cnc34)C2)CC1 = 0.1 to 1 µM
• CC(C)(O)[C@H]1CC[C@H](NC(=O)[C@H]2C[C@H](Oc3ccccc3OC(F)(F)F)C2)CC1 = 0.1 to 1 µM

Moving on to another compound below.
Q) Find the measured IC50: item O=C(N[C@H]1CC[C@H](N[C@@H](CO)C(F)(F)F)CC1)N1CC(Oc2cccc3scnc23)C1 , target or system haematopoietic prostaglandin D synthase (H-PGDS) (Homo sapiens).
A) 0.01 to 0.0794 µM

---

SYSTEM_TESTED: haematopoietic prostaglandin D synthase (H-PGDS) (Homo sapiens, UniProt O60760)
Construct: Full length human H-PGDS cDNA (Invitrogen Ultimate ORF 10H13026) was amplified by PCR; 6-His (N); TEV protease cleavage site (N); made in house; host or cells: E. coli BL21 (DE3*), vector pET22b+
Sequence (O60760 whole entry): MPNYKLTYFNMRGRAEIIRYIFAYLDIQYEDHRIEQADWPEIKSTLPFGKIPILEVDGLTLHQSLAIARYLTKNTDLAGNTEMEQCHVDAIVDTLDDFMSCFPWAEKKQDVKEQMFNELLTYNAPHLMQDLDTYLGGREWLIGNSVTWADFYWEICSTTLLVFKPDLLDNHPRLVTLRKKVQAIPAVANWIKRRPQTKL
EXPERIMENT_SUMMARY: H-PGDS RapidFire high throughput mass spectrometry assay (conversion of PGH2 to PGD2)
Type: biochemical
CONDITION_PARAMETERS: 10 nM H-PGDS, PGH2 formed in situ by COX-2 from arachidonic acid; read-out: Potency Range (mean pIC50) (converted)
MEASURED_ATTRIBUTE: IC50

- O=C(Nc1ncc(CO)s1)[C@H]1C[C@H](Oc2cccc3cccnc23)C1: 10 to 79.4 nM

Q) Find the measured IC50: item CC(C)(O)[C@@H]1CC[C@@H](NC(=O)[C@H]2C[C@H](Oc3cccc4scnc34)C2)CO1 (racemic) , target or system haematopoietic prostaglandin D synthase (H-PGDS) (Homo sapiens, UniProt O60760).
A) 10 to 79.4 nM

Q) Entry O=C(N[C@H]1CC[C@H](N2CC(F)(F)C2)CC1)N1CC(Oc2cccc3scnc23)C1 please
A) 100 to 1000 nM

Q) Entry CC(C)(O)[C@H]1CC[C@H](NC(=O)[C@H]2C[C@H](Oc3cc(F)cc4cccnc34)C2)CC1 please
A) 10 to 79.4 nM

Q) Entry CC(N1CCC(NC(=O)N2CC(Oc3cccc4scnc34)C2)CC1)C(F)(F)F (racemic) please
A) 10 to 79.4 nM

Q) Entry Cc1nnc(NC(=O)[C@H]2C[C@H](Oc3cccc4scnc34)C2)s1 please
A) 10 to 79.4 nM
